- Assay: Study 2: midazolam pharmacokinetics alone or with single and multiple dose entrectinib
- Test settings: Midazolam with single dose entrectinib 600 mg; geometric mean (geometric CV)
Property label: Cmax (nM)
Number only, in nM; omit the unit.

Ask: Any idea what its Cmax is? The compound is OCc1ncc2n1-c1ccc(Cl)cc1C(c1ccccc1F)=NC2 [1’-hydroxymidazolam]
Reply: 4.21

----------
- Assay: Study 1 Cohort 1: single dose entrectinib alone or with itraconazole, plasma pharmacokinetics
- Test settings: human, in vivo, 100 mg, t1/2, Entrectinib 100 mg alone; geometric mean (geometric CV)
Property label: half-life (h)
Note: unit h is implicit; provide only the numeric part.

Ask: I would be grateful if you could share the reported half-life for `CN1CCN(c2ccc(C(=O)Nc3n[nH]c4ccc(Cc5cc(F)cc(F)c5)cc34)c(NC3CCOCC3)c2)CC1` .
Reply: 20
